# test summary: protein stability index of a GFP-peptide fusion (yeast GPS) (PSI 1-4); higher = more stable; sorted into four equal gates, so the index is relative within each strain
# condition info: san1∆
measured attribute: protein stability index
One number for each entry.

Take a look at these entries with their results.
| sequence string | protein stability index |
| --- | --- |
| LLVKLSKRLPLRFPEHT [BRR2] | 2.25 |
| ELQEKNVELLNCIRILA [YIL149C/MLP2] | 1.73 |
| SQSRSAKAGLTFPVGRV [HTA1] | 2.92 |
| FEKKLSIIKAKLPLLNE [YML103C/NUP188] | 1.85 |
| TGKIVDVVGTLSRNGKP [FAS1] | 3.48 |
| GLTLSTTNLDIDLLTFQ [RPP1] | 3.16 |

I'm hoping you can list protein stability index for every sequence here, please.
1. STFRLNLSVTSPYNADF [RPO21]
2. GVSLLALWKEKKEKPRS [RPS23A]
3. KLLGVDMQSSVDTGLQP [YLR018C/POM34]
4. SFNESQRGEDDLTFKLA [RPO21]
5. NTLEEFEHGRTPAEMSR [FAS2]
6. REKNSLESGKETALEFL [SMC4]
7. YGGDGLDPLEMEGNAQP [RPO31]

1. 2.6
2. 2.21
3. 3.1
4. 3.54
5. 3.19
6. 3.07
7. 3.28

====

# test summary: protein stability index of a GFP-peptide fusion (yeast GPS) (PSI 1-4); higher = more stable; sorted into four equal gates, so the index is relative within each strain
# condition info: pdr5∆
Could you label it y if measured protein stability index is 3 or higher, and n otherwise?

Illustrative cases are given below, each with its answer.
| sequence string | classification |
| --- | --- |
| SFKKIIKFLLTFIDKER [YCS4] | n |
| KNTLLERLKQLTPNEIK [SWP82] | n |
| CYAPRPSAGPHKLRESL [RPS4A] | y |

# check: protein stability index of TNSTYNPASATDNMSGR [YJL039C/NUP192] is greater than or equal to 3
n

Does GNILDFNLNLPPSSFGR [REC8] have a reported protein stability index of at least 3?
y

====

# test summary: protein stability index of a GFP-peptide fusion (yeast GPS) (PSI 1-4); higher = more stable; sorted into four equal gates, so the index is relative within each strain
# condition info: san1∆
measured attribute: protein stability index
Answers are plain numbers.

| sequence string | protein stability index |
| --- | --- |
| LPAPPVCIRPSVMMQDS [RPO31] | 1.93 |
| LEALMDILLCYQKLFSQ [SRB8] | 3.18 |
| DGGYNAQLAKAKTELNE [SMC2] | 1.44 |
| TKENLEVSGENVVEADL [QCR2] | 3.52 |
| TMIKKTTLVTRREELQQ [SMC3] | 3.1 |

Would you mind listing protein stability index for each of the following sequences?
1. NDFTTKLINIKKFDISN [MED1]
2. ETRNGKVKNQGADVTNT [YCS4]
3. TIIFIDELDAIGTKRFD [RPT5]
4. MTLKEMYQMITMGGNAE [SMC4]
5. SSISWKNIAQCLSDYTK [YJL039C/NUP192]
6. GLRVRGQHTKTTGRRRA [RPS18A]

1: 1.56; 2: 3.11; 3: 2.5; 4: 2.44; 5: 1.87; 6: 2.21

Please look at the items below and tell me protein stability index for each one, in order.
1. VQDRGLSAVAQAESMKF [RPS3]
2. REPDFWVIRKQRRTNNS [MED6]

1. 2.73
2. 2.97

Provide each entry's protein stability index from the list below.
1. DALEMQWRYLYDTQLKV [ARP7]
2. RFMKGRRSKQLINLAKT [RPC82]
3. APDGSASISLPNHIPSV [SWP82]
4. NHSLQHQNESSAASIPP [RPN4]
5. ETFQDTFSGALGKQSSS [FAS2]
6. GRPQRKMMSFQANPTEE [RPB5]

1: 1.41; 2: 2.72; 3: 2.77; 4: 2.83; 5: 3.15; 6: 3.44

For every item in the list below, what is its measured protein stability index?
1. SYLEERERQVNEKLADL [RPC53]
2. NLPEHIVPGTYIQERNP [RPS10A]
3. TVALREIRRFQKSTELL [HHT1]
4. STTNSDVSLLLQRDLFI [RGR1]

3.12
2.7
3.07
2.81

Hi team, please reply with protein stability index for each item in this list.
1. RVGVKLKFNSTEYRGTL [SMX3]
2. FFRNKLKYHDFLRKATA [RPL16B]
3. VDKNGAHLYMLEPSGSY [PRE10]
4. NNNNNNNNSNNIMSASG [YGL172W/NUP49]
5. RLQGIKLLDNIQEYQLC [COR1]
6. QESSSLRLLEVTDDDRL [POP8]
7. ERNNIGEICKNYELEKI [YDL116W/NUP84]
8. LYEKDIVPSMTHLEIEP [RET1]

[2.87, 2.4, 2.92, 2.67, 2.06, 2.5, 2.94, 2.73]

Please go through the list and note protein stability index for each sequence.
1. ETALEFLEKEKQLTLLR [SMC4]
2. ANVPSTATTGKRKPAKS [RPN4]
3. TNVEDPLAKKQTVRLIK [SIR2]
4. ELAGDEELEAEQIDVFS [PRP8]
5. ENNTDSARKELEQKIHE [SMC1]
6. RLNTVTRVHQLMLEDAV [MCD1]
7. KMFQDIRLSKILEDDFA [CDC53]
8. QRCKSNAISLQLKYDTS [YIL149C/MLP2]

2.66
2.64
2.77
3.08
2.79
1.69
2.62
1.86

I need protein stability index for every entry listed below, if you could help.
1. VNQDKANNASQITPTVP [SNF12]
2. YTSIVQCCEFMTMLTPN [YML103C/NUP188]
3. AELDLMSGILHCEDKDY [RPN6]
4. LGYPPISLVDDIINAVN [MTW1]
5. PHLIIQNHNSKSTDNSA [IRR1]
6. FKKDLVIVLSNISHLLE [SWI1]
7. DTFRWVGKKSAPEKDIW [RPO31]
8. NYHPMNIDETSDEVSRG [SMC4]

1: 3.11; 2: 1.95; 3: 3; 4: 2.44; 5: 2.81; 6: 1.75; 7: 2.9; 8: 3.23

# per-item lookup of protein stability index; items listed below
1. VPEMIGSVVGIYNGKAF [RPS15]
2. ESEQELSLHTGFIENCN [MTR3]

1.66
2.88

====

# test summary: protein stability index of a GFP-peptide fusion (yeast GPS) (PSI 1-4); higher = more stable; sorted into four equal gates, so the index is relative within each strain
# condition info: san1∆
protein stability index of 3 or higher: yes (1). Under 3: no (0).

| sequence string | classification |
| --- | --- |
| HLRKLLDGELDFDDFLK [RET1] | no (0) |
| SMILEAISTDKINPFGF [RRI2] | no (0) |
| LFGSKPQGSTTNGGLFG [YGR119C/NUP57] | yes (1) |
| LTNILRMMGCVKKQKSA [FAS2] | no (0) |
| AQWERSKLSQEFLYPHL [SNF12] | no (0) |
| FICSIIQTVVISLLALP [YML031W/NDC1] | no (0) |
| RNVLSASLDGTIRLWEC [RPN14] | yes (1) |
| KQENSTLLKKANRDDVK [RPC82] | yes (1) |

hey, is protein stability index for this one >= 3? NTENNDPDIPMTIDLEP [IRR1]
no (0)

Kindly determine if protein stability index recorded for GKNVINRERFISKLFLR [SMD2] is above or exactly 3.
no (0)

Does DKLKVYKQAMNETSEQL [SNF5] have a reported protein stability index of at least 3?
yes (1)

Assess whether reported protein stability index for GARFDDGAGGDNEVQRT [RPT1] sits at 3 or higher.
yes (1)

Tell me whether protein stability index is at least 3 here: PFSEGVTFSVMPPKKSW [SMC4]
no (0)

====

# test summary: protein stability index of a GFP-peptide fusion (yeast GPS) (PSI 1-4); higher = more stable; sorted into four equal gates, so the index is relative within each strain
# condition info: doa10∆
Can you tell me protein stability index for the items I'm about to list?
Give bare numbers.

| sequence string | protein stability index |
| --- | --- |
| PSKDSFTKYKPARSSSL [YAR002W/NUP60] | 2.15 |
| KPANASHAIRLGNGVAC [RGR1] | 2.71 |
| NFKSYRGVTKVGFGESN [SMC1] | 3.03 |

Please give protein stability index for each item listed below.
1. SSLLYTYDENDDFFKEL [ESC2]
2. LYPDSSSFKKNLLKFIT [RPN3]
3. ILTIIEEYKKSLYAYCH [GRR1]
4. SSFKEDCLSFAPTLSQT [SSN2]

2.52
1.19
2.38
2.7
